tested on: Saccharomyces cerevisiae; experiment: protein stability index of tFT-peptide fusion (C-terminal peptide) (PSI (0-1 scale)); higher = more stable (slower turnover); settings: genetic background: das1 deletion; temperature: 37 C;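 note: PSI is a weighted mean of sequencing reads over stability bins, variants kept only with over 10 reads, mCherry proximal and sfGFP distal, peptide attached via GGGS linker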
endpoint-label: protein stability index

Guide cases for protein stability index, answers given:
{"input-sequence": "VAFGVASGWCWF", "protein stability index": 0.848}
{"input-sequence": "AGLTLLWPLCLL", "protein stability index": 0.394}
{"input-sequence": "VWLAWCIVGGLG", "protein stability index": 0.544}

Identify measured protein stability index obtained with Saccharomyces cerevisiae for CSPAFRPIVFVL . 0.407

Identify measured protein stability index obtained with Saccharomyces cerevisiae for VGVVLWVWGLGD . 0.636

Identify measured protein stability index obtained with Saccharomyces cerevisiae for RYTWHGICIVTR . 0.48

---

test system: Saccharomyces cerevisiae; experiment: protein stability index of tFT-peptide fusion (C-terminal peptide) (PSI (0-1 scale)); higher = more stable (slower turnover); conditions: genetic background: wild type; temperature: 30 C
endpoint-label: protein stability index

Guide cases for protein stability index, answers given:
{"input-sequence": "GGVVGASMSGTP", "protein stability index": 0.683}
{"input-sequence": "KESLKDRTKINI", "protein stability index": 0.692}
{"input-sequence": "TCVRHKVQKSRE", "protein stability index": 0.688}
{"input-sequence": "SGLRQGRHVYPA", "protein stability index": 0.682}
{"input-sequence": "PPPPPTLPSCLS", "protein stability index": 0.689}

Please report the measured protein stability index for RRGAVVLVSPAL 0.677

Please report the measured protein stability index for SRDMGYFFPKLK 0.655

Please report the measured protein stability index for SRVWACCGVIGV 0.667

Please report the measured protein stability index for EGGETDRSLMVV 0.66

Please report the measured protein stability index for GFVLSFADLLGV 0.653

Please report the measured protein stability index for NRMLRAQRKNRT 0.689

Please report the measured protein stability index for KYKVGLWHRVAK 0.68

Please report the measured protein stability index for DLPRCPPSPPPS 0.713

---

test system: Saccharomyces cerevisiae; experiment: protein stability index of tFT-peptide fusion (C-terminal peptide) (PSI (0-1 scale)); higher = more stable (slower turnover); settings: genetic background: wild type; temperature: 30 C
endpoint-label: protein stability index
// print number alone

Guide cases for protein stability index, answers given:
{"input-sequence": "PCRPPSILAPHP", "tested-on": "Saccharomyces cerevisiae", "endpoint-label": "protein stability index", "quantitative-result": 0.739}
{"input-sequence": "EKKKSKGRRKLM", "tested-on": "Saccharomyces cerevisiae", "endpoint-label": "protein stability index", "quantitative-result": 0.705}
{"input-sequence": "LLYAFSSFLRAP", "tested-on": "Saccharomyces cerevisiae", "endpoint-label": "protein stability index", "quantitative-result": 0.647}

Please report the measured protein stability index for VFLSCPCLFFWV 0.56

Please report the measured protein stability index for FPYARHLSVLLL 0.472

Please report the measured protein stability index for LPPPSPTGTFPP 0.7

Please report the measured protein stability index for GGGVVRGLEQRA 0.637

Please report the measured protein stability index for LLLRGSGRSLAL 0.709

Please report the measured protein stability index for LTPLPPPPLRPP 0.599

Please report the measured protein stability index for LSHAHLSPTSSA 0.708

Please report the measured protein stability index for VIILRWCRVDGF 0.565

Please report the measured protein stability index for GEAASEKKQEAG 0.644

Please report the measured protein stability index for PVPASSSRSLLL 0.671

Please report the measured protein stability index for YDRVVHASSTMW 0.707

Please report the measured protein stability index for IKSQRGIHLELR 0.634

Please report the measured protein stability index for PQWFPNYLRLLL 0.517

Please report the measured protein stability index for LRGVSGTLSSSC 0.673

Please report the measured protein stability index for IPPPVLPSPPSP 0.672

Please report the measured protein stability index for PSVAPFPLAPFS 0.71

Please report the measured protein stability index for TGDNNRGKRDYD 0.678

Please report the measured protein stability index for EDKVHQSSACHQ 0.707

Please report the measured protein stability index for SPLPPRSPPRPA 0.699

Please report the measured protein stability index for GRQRGGRENEGE 0.673

Please report the measured protein stability index for VFRCSGLFFRDG 0.662

Please report the measured protein stability index for SPPHSPPWPLSL 0.691
